Listing of recorded Dmax by entry.
target: BCL-XL (Homo sapiens); construct: endogenous in cells; host or cells: MOLT-4; assay: Bcl-xL ELISA degradation in MOLT-4 cells, 6 h; assay type: cell-based

Cc1ncsc1-c1ccc([C@H](C)NC(=O)[C@@H]2C[C@@H](O)CN2C(=O)[C@@H](NC(=O)N2CCC(N3CCC(S(=O)(=O)NC(=O)c4nc(N5CCc6cccc(C(=O)Nc7nc8ccccc8s7)c6C5)ccc4-c4cnn(CC5CCCCC5)c4C)CC3)CC2)C(C)(C)C)cc1 [I-258] : 50 to 75%

Enquiry: Which Dmax is reported for this compound? Cc1ncsc1-c1ccc([C@H](C)NC(=O)[C@@H]2C[C@@H](O)CN2C(=O)[C@@H](NC(=O)CCNCCS(=O)(=O)NC(=O)c2nc(N3CCc4cccc(C(=O)Nc5nc6cccnc6s5)c4C3)ccc2-c2cnn(CC3CCCCC3)c2C)C(C)(C)C)cc1 [I-376]
Return: > 75%

Enquiry: Subsequent entry: Cc1ncsc1-c1ccc(CNC(=O)[C@@H]2C[C@@H](O)CN2C(=O)[C@@H](NC(=O)C2CCN(c3ccc(S(=O)(=O)NC(=O)c4nc(N5CCc6cccc(C(=O)Nc7nc8ccccc8s7)c6C5)ccc4-c4cnn(CC5CCCCC5)c4C)c(F)c3)CC2)C(C)(C)C)cc1 [I-339]
Return: > 75%

Enquiry: Subsequent entry: Cc1ncsc1-c1ccc([C@H](C)NC(=O)[C@@H]2C[C@@H](O)CN2C(=O)[C@@H](NC(=O)CCCCCCC(=O)N2CCN(CC3(C)CCC(c4ccc(Cl)cc4)=C(CN4CCN(c5ccc(C(=O)NS(=O)(=O)c6ccc(N[C@H](CCN7CCOCC7)CSc7ccccc7)c(S(=O)(=O)C(F)(F)F)c6)cc5)CC4)C3)CC2)C(C)(C)C)cc1 (stereo partly shown) [I-395]
Return: < 50%

###

target: BCL-XL (Homo sapiens, UniProt Q07817); construct: endogenous in cells; host or cells: MOLT-4; experiment: Bcl-xL ELISA degradation in MOLT-4 cells, 6 h; format: cell-based
Sequence (Q07817 whole entry): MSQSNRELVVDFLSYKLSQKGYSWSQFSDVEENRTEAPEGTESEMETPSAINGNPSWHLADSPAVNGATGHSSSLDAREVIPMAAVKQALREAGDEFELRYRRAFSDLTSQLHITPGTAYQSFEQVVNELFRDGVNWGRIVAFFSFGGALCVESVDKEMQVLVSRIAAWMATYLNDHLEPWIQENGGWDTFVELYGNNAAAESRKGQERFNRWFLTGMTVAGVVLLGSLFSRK
Listing of recorded Dmax by entry.

Below are worked cases with known answers.
Cc1ncsc1-c1ccc(CNC(=O)[C@@H]2C[C@@H](O)CN2C(=O)[C@@H](NC(=O)C2(F)CC2)C(C)(C)C)c(OCCCCCS(=O)(=O)NC(=O)c2nc(N3CCc4cccc(C(=O)Nc5nc6ccccc6s5)c4C3)ccc2-c2cnn(CC34CC5CC(CC(C5)C3)C4)c2C)c1 [I-121] : > 75%
Cc1cc(C(C(=O)N2C[C@H](O)C[C@H]2C(=O)NCc2ccc(-c3scnc3C)cc2OCCN2CCN(CC[C@H](CSc3ccccc3)Nc3ccc(S(=O)(=O)NC(=O)c4ccc(N5CCN(CC6=C(c7ccc(Cl)cc7)CCC(C)(C)C6)CC5)cc4)cc3S(=O)(=O)C(F)(F)F)CC2)C(C)C)on1 (stereo partly drawn) [I-282] : 50 to 75%
Cc1ncsc1-c1ccc([C@H](CO)NC(=O)[C@@H]2C[C@@H](O)CN2C(=O)[C@@H](NC(=O)CCNCCS(=O)(=O)NC(=O)c2nc(N3CCc4cccc(C(=O)Nc5nc6cccnc6s5)c4C3)ccc2-c2cnn(CC3CCCCC3)c2C)C(C)(C)C)cc1 [I-377] : > 75%
Cc1cc(N(C)c2ccc(-c3cnn(CC45CC6CC(CC(C6)C4)C5)c3C)c(C(=O)NS(=O)(=O)CCCCCC(=O)N[C@H](C(=O)N3C[C@H](O)C[C@H]3C(=O)NCc3ccc(-c4scnc4C)cc3)C(C)(C)C)n2)nnc1Nc1nc2cccnc2s1 [I-451] : > 75%
Cc1ncsc1-c1ccc(CNC(=O)[C@@H]2C[C@@H](O)CN2C(=O)[C@@H](NC(=O)CCCc2cc(F)cc(S(=O)(=O)NC(=O)c3nc(N4CCc5cccc(C(=O)Nc6nc7ccccc7s6)c5C4)ccc3-c3cnn(CC4CCCCC4)c3C)c2)C(C)(C)C)cc1 [I-374] : > 75%
Cc1cnc(NC(=O)c2cccc3c2CN(c2ccc(-c4cnn(CC5CCCCC5)c4C)c(C(=O)NS(=O)(=O)CCCCCC(=O)N[C@H](C(=O)N4C[C@H](O)C[C@H]4C(=O)N[C@@H](C)c4ccc(-c5scnc5C)cc4)C(C)(C)C)n2)CC3)s1 [I-460] : > 75%
Cc1ncsc1-c1ccc([C@H](C)NC(=O)[C@@H]2C[C@@H](O)CN2C(=O)[C@@H](NC(=O)CCCc2ccc(S(=O)(=O)NCc3nc(N4CCc5cccc(C(=O)Nc6nc7ccccc7s6)c5C4)ccc3-c3cnn(CC4CCCCC4)c3C)cc2)C(C)(C)C)cc1 [I-307] : < 50%
Cc1ncsc1-c1ccc([C@H](C)NC(=O)[C@@H]2C[C@@H](O)CN2C(=O)[C@@H](NC(=O)C2CCC(O)(c3ccc(S(=O)(=O)NC(=O)c4nc(N5CCc6cccc(C(=O)Nc7nc8ccccc8s7)c6C5)ccc4-c4cnn(CC5CCCCC5)c4C)cc3)CC2)C(C)(C)C)cc1 (stereo partly drawn) [I-314] : < 50%

Enquiry: # returns recorded Dmax (system: BCL-XL (Homo sapiens, UniProt Q07817)) for Cc1ncsc1-c1ccc(CNC(=O)[C@@H]2C[C@@H](O)CN2C(=O)[C@@H](NC(=O)C2(F)CC2)C(C)(C)C)c(OCCCCCS(=O)(=O)NC(=O)c2nc(N3CCc4cccc(C(=O)Nc5nc6ccccc6s5)c4C3)ccc2-c2cnn(CC3CCCCC3)c2C)c1 [I-177]
Return: > 75%

Enquiry: Subsequent entry: Cc1ncsc1-c1ccc([C@H](C)NC(=O)[C@@H]2C[C@@H](O)CN2C(=O)[C@@H](NC(=O)C2CCN(c3ccc(S(=O)(=O)NC(=O)c4nc(N5CCc6cccc(C(=O)Nc7nc8ccccc8s7)c6C5)ccc4-c4cnn(CC5(CCCN6CCN(C)CC6)CCCCC5)c4C)cc3)CC2)C(C)(C)C)cc1 [I-256]
Return: 50 to 75%

Enquiry: Subsequent entry: Cc1ncsc1-c1ccc([C@H](C)NC(=O)[C@@H]2C[C@@H](O)CN2C(=O)[C@@H](NC(=O)C2CCN(c3ccc(S(=O)(=O)NC(=O)c4nc(N5CCc6cccc(C(=O)Nc7nc8ccccc8s7)c6C5)ccc4-c4cnn(CC5CCCC5)c4C)cc3)CC2)C(C)(C)C)cc1 [I-348]
Return: > 75%

Enquiry: Subsequent entry: COc1nn(C)c2ccc([C@H](C)NC(=O)[C@@H]3C[C@@H](O)CN3C(=O)[C@@H](NC(=O)CCCCCS(=O)(=O)NC(=O)c3nc(N4CCc5cccc(C(=O)Nc6nc7cccnc7s6)c5C4)ccc3-c3cnn(CC4CCCCC4)c3C)C(C)(C)C)cc12 [I-489]
Return: > 75%

Enquiry: Subsequent entry: Cc1ncsc1-c1ccc([C@H](C)NC(=O)[C@@H]2C[C@@H](O)CN2C(=O)[C@@H](NC(=O)CO[C@H]2C[C@H](OCCNC(=O)c3nc(N4CCc5cccc(C(=O)Nc6nc7ccccc7s6)c5C4)ccc3-c3cnn(CC4CCCCC4)c3C)C2)C(C)(C)C)cc1 [I-182]
Return: 50 to 75%

Enquiry: Subsequent entry: Cc1ncsc1-c1ccc([C@H](C)NC(=O)[C@@H]2C[C@H](O)CN2C(=O)[C@@H](NC(=O)CCc2ccc(S(=O)(=O)NC(=O)c3nc(N4CCc5cccc(C(=O)Nc6nc7ccccc7s6)c5C4)ccc3-c3cnn(CC4CCCCC4)c3C)cc2)C(C)(C)C)cc1 [I-285]
Return: 50 to 75%

Enquiry: Subsequent entry: Cc1ncsc1-c1ccc([C@H](C)NC(=O)[C@@H]2C[C@@H](O)CN2C(=O)[C@@H](NC(=O)C2CCN(c3ccc(S(=O)(=O)NC(=O)c4nc(N5CCc6cccc(C(=O)Nc7nc8ccccc8s7)c6C5)ccc4-c4cnn(CC5(OCCO)CCCCC5)c4C)cc3)CC2)C(C)(C)C)cc1 [I-409]
Return: > 75%
